# Test system: HUVEC
# Assay name: Antiproliferative against HUVEC cells assessed as cell viability after 96 hrs by MTT assay
# Type: functional, cell-based
# Assay conditions: Homo sapiens
Observable: pIC50
Give bare numbers, as −log10 of the molar value.

CO[C@@H]1[C@H](OC(=O)/C=C/C=C/C=C/C=C/C(=O)O)CC[C@]2(CO2)[C@H]1[C@@]1(C)O[C@@H]1CC=C(C)C    8.18
CO[C@@H]1[C@H](OC(=O)NCCCCCCCCNC(=O)CCCC[C@@H]2SC[C@@H]3NC(=O)N[C@@H]32)CC[C@]2(CO2)[C@H]1[C@@]1(C)O[C@@H]1CC=C(C)C    8.01

Given the entry "CO[C@@H]1[C@H](OC(=O)NCCNC(=O)OCCOCCOCCOCCOCCOCCOC(=O)NCCCC[C@@H]2SC[C@@H]3NC(=O)N[C@@H]32)CC[C@]2(CO2)[C@H]1[C@@]1(C)O[C@@H]1CC=C(C)C" , what pIC50 was observed with HUVEC? 7.22

----------
# Assay name: Antiproliferative against human Bel7402 cells assessed as cell viability after 96 hrs by MTT assay
# Type: functional, cell-based
# Assay conditions: Bel-7402, 96 h
Observable: pIC50
Answers are plain numbers, as −log10 of the molar value.

Using the record for COc1cccc2c1C(=O)c1c(O)c3c(c(O)c1C2=O)C[C@@](O)(C(=O)CO)C[C@@H]3O[C@H]1C[C@H](N)[C@H](O)[C@H](C)O1 [DOXORUBICIN] , report its pIC50. 6.24

Where do the numbers come from? From ChEMBL document CHEMBL3232742.
